pIC50: −log10 of the molar value.
// BCL-XL (Homo sapiens (Human), UniProt Q07817) pIC50 records

Take a look at these entries with their results.
| COMPOUND | pIC50 |
| --- | --- |
| O=C(c1cc(-c2cc3c(cc2C(=O)N2Cc4ccccc4C[C@H]2CN2CCOCC2)OCO3)n2c1CCCC2)N(Cc1ccccc1)c1ccc(O)cc1 [Compound 15] | ≥ 5.70 |
| O=C(c1cc(-c2cc3c(cc2C(=O)N2Cc4ccccc4C[C@H]2CN2CCOCC2)OCO3)n2c1CCCC2)N(Cc1cccnc1)c1ccc(O)cc1 [Compound 39] | 5.40 to 5.70 |

Query string: Provide pIC50, tested on BCL-XL (Homo sapiens (Human), UniProt Q07817), for COCCNC(=O)c1ccc(CN(C(=O)c2cc(-c3cc4c(cc3C(=O)N3Cc5ccccc5C[C@H]3CN3CCOCC3)OCO4)n3c2CCCC3)c2ccc(O)cc2)cc1 [Compound 1] .
Sequence (Q07817 whole entry): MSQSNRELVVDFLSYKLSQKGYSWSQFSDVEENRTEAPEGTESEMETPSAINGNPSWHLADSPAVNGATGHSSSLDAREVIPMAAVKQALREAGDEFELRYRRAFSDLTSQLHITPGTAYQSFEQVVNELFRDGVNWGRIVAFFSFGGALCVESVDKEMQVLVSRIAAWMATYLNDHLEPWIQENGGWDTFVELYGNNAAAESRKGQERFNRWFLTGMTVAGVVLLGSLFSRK
Result string: ≥ 5.70

Attribution: patent US11697650B2
